remaining activity at 10 µM values by entry
TARGET_DESC: PRAK (Homo sapiens, UniProt Q8IW41)
Sequence (Q8IW41 1-473): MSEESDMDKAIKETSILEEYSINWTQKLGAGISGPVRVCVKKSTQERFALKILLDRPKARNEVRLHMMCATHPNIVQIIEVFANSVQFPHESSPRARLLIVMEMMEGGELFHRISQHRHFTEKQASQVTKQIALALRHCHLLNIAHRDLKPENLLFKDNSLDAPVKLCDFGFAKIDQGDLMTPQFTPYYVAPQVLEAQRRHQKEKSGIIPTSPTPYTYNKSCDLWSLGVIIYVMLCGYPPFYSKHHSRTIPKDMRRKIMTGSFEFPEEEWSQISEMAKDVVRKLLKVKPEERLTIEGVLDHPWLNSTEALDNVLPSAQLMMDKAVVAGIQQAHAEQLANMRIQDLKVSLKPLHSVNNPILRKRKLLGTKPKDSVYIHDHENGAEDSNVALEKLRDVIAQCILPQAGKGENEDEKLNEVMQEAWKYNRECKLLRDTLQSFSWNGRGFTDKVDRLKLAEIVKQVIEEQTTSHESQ
TEST_DETAILS: Kinase panel: PRAK
Type: biochemical, human/mammalian
CONDITION: compound at 10 μM, read-out: % of activity respect of the control
Units required after the number.

Here are 3 molecules together with their reported answers.
| MOLECULE | RECORDED_VALUE |
| --- | --- |
| CC(c1ccccc1)n1c(=O)[nH]c2ncc(-c3ccc(F)cc3)nc21 (stereo not shown) | 103% |
| O=c1[nH]c2ncc(-c3ccc(F)cc3)nc2n1CC1CC1 | 99% |
| C[C@H](c1ccccc1)n1c(=O)[nH]c2ncc(-c3ccccc3)nc21 | 98% |

Now for a further molecule.
Task: Kindly state the measured remaining activity at 10 µM obtained for "O=c1[nH]c2ncc(-c3ccc(F)cc3)nc2n1C1CCCCC1" with PRAK (Homo sapiens, UniProt Q8IW41).
Result: 99%

----------
remaining activity at 10 µM values by entry
TARGET_DESC: CK1 (Homo sapiens)
Sequence (P48730 whole entry): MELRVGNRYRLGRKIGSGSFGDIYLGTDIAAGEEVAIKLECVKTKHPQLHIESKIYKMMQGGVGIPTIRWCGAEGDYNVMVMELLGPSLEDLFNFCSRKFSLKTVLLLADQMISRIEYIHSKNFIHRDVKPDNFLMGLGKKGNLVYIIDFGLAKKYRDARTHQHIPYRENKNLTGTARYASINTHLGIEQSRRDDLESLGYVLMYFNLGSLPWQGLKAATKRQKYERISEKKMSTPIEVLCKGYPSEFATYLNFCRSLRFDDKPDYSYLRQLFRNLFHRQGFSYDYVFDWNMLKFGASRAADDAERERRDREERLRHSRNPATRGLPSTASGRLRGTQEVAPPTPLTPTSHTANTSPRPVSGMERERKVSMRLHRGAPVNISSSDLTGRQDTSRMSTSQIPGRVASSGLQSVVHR
TEST_DETAILS: Kinase panel: CK1
Assay type: biochemical, human/mammalian
CONDITION: compound at 10 μM, read-out: % of activity respect of the control
Note: unit % is implicit; provide only the numeric part.

Here are 3 compounds together with their reported answers.
| COMPOUND | remaining activity at 10 µM / % |
| --- | --- |
| CC(c1ccccc1)n1c(=O)[nH]c2ncc(-c3ccc(F)cc3)nc21 (stereo not shown) | 75 |
| C[C@H](c1ccccc1)n1c(=O)[nH]c2ncc(-c3ccccc3)nc21 | 71 |
| O=c1[nH]c2ncc(-c3ccc(F)cc3)nc2n1C1CCCCC1 | 98 |

Task: Name the recorded remaining activity at 10 µM for "O=c1[nH]c2ncc(-c3ccc(F)cc3)nc2n1CC1CC1" .
Result: 75

----------
TARGET_DESC: UniProt:Q15139
Sequence (Q15139 whole entry): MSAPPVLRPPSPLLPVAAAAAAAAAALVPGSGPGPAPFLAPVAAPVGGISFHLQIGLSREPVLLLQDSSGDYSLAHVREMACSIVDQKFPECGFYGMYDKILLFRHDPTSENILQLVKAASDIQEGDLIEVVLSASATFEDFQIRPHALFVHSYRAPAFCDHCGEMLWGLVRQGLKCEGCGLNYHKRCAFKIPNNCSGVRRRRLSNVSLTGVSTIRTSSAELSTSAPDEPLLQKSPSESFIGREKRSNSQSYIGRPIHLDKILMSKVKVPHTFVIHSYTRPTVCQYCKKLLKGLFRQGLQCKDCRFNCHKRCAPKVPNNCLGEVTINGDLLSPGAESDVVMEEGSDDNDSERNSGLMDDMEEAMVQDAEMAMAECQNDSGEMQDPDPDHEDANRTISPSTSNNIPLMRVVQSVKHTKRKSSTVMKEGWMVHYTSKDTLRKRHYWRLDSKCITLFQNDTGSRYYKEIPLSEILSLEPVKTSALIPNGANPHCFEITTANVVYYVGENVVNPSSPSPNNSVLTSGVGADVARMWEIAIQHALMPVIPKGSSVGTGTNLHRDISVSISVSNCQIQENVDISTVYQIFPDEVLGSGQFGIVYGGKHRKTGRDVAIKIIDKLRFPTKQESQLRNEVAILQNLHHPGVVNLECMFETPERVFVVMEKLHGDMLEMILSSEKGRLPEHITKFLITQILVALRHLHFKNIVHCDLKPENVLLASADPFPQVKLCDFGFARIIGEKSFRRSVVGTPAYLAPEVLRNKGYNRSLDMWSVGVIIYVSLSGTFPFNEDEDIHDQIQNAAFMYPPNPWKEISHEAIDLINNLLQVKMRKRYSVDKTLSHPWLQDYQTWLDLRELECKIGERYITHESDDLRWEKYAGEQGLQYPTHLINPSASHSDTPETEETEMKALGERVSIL
TEST_DETAILS: Kinase panel: PKD1
Assay type: biochemical, human/mammalian
CONDITION: compound at 10 μM, read-out: % of activity respect of the control
remaining activity at 10 µM values by entry
Note: unit % is implicit; provide only the numeric part.

Task: Name the recorded remaining activity at 10 µM for O=c1[nH]c2ncc(-c3ccc(F)cc3)nc2n1CC1CC1 [Compound 10] .
Result: 40

Task: Name the recorded remaining activity at 10 µM for CC(c1ccccc1)n1c(=O)[nH]c2ncc(-c3ccc(F)cc3)nc21 (stereo not shown) [Compound 1] .
Result: 55

Task: Name the recorded remaining activity at 10 µM for C[C@H](c1ccccc1)n1c(=O)[nH]c2ncc(-c3ccccc3)nc21 [Compound 14] .
Result: 44

Task: Name the recorded remaining activity at 10 µM for O=c1[nH]c2ncc(-c3ccc(F)cc3)nc2n1C1CCCCC1 [Compound 12] .
Result: 60
